Experiment: cells
Settings: Homo sapiens, A549, 72 h
Description: Cytotoxicity against human A549 cells assessed as reduction in cell proliferation after 72 hrs by MTT assay
measureName: pIC50
By convention, pIC50 is the negative base-10 log of a molar concentration.

Task: Form field: reported pIC50 of CSc1ccc(/C=N/Nc2ncc(Cl)c(Nc3ccccc3S(=O)(=O)C(C)C)n2)cc1
Output: 6.06

Task: Form field: reported pIC50 of CC(C)S(=O)(=O)c1ccccc1Nc1nc(N/N=C/c2ccc(Br)cc2)ncc1Cl
Output: 5.88

Task: Form field: reported pIC50 of CC(C)S(=O)(=O)c1ccccc1Nc1nc(N/N=C/c2ccc(S(C)(=O)=O)cc2)ncc1Cl
Output: 5.88

Next:
Task: Form field: reported pIC50 of CC(C)S(=O)(=O)c1ccccc1Nc1nc(N/N=C/c2cccnc2)ncc1Cl
Output: 5.94

Task: Form field: reported pIC50 of COc1ccc(/C(C)=N/Nc2ncc(Cl)c(Nc3ccccc3S(=O)(=O)C(C)C)n2)cc1
Output: 5.67

Task: Form field: reported pIC50 of CC(C)S(=O)(=O)c1ccccc1Nc1nc(N/N=C/c2ccc(C#N)cc2)ncc1Cl
Output: 5.60

Task: Form field: reported pIC50 of CC(C)S(=O)(=O)c1ccccc1Nc1nc(N/N=C/c2ccccc2Cl)ncc1Cl
Output: 5.10

Task: Form field: reported pIC50 of CC(C)S(=O)(=O)c1ccccc1Nc1nc(N/N=C/c2ccc([N+](=O)[O-])cc2)ncc1Cl
Output: 5.03

====

Experiment: cells
Conditions: Homo sapiens, KARPAS-299, 72 h
Description: Cytotoxicity against human KARPAS299 cells harboring NPM-ALK assessed as reduction in cell proliferation after 72 hrs by MTT assay
measureName: IC50 (nM)
Supply the numeric figure in nM, leaving out any unit text.

These recorded examples may help you get a feel for the data.
Task: Form field: reported IC50 of CSc1ccc(/C(C)=N/Nc2ncc(Cl)c(Nc3ccccc3S(=O)(=O)C(C)C)n2)cc1
Output: 490

Task: Form field: reported IC50 of CSc1ccc(/C=N/Nc2ncc(Cl)c(Nc3ccccc3S(=O)(=O)C(C)C)n2)cc1
Output: 280

Task: Form field: reported IC50 of CC(C)S(=O)(=O)c1ccccc1Nc1nc(N/N=C/c2ccncc2)ncc1Cl
Output: 870

Task: Form field: reported IC50 of C/C(=N\Nc1ncc(Cl)c(Nc2ccccc2S(=O)(=O)C(C)C)n1)c1ccc(F)cc1F
Output: 440

Proceed to the following item.
Task: Form field: reported IC50 of C/C(=N\Nc1ncc(Cl)c(Nc2ccccc2S(=O)(=O)C(C)C)n1)c1ccc(Br)cc1
Output: 2500

====

Assay: cells
Settings: Homo sapiens, KARPAS-299, 72 h
# log10 of IC50 per record follows
Field: value | Transform: log10 | Quantity: IC50 | Unit: nM

These recorded examples may help you get a feel for the data.
Task: Form field: reported log10 of IC50 of CC(C)S(=O)(=O)c1ccccc1Nc1nc(N/N=C/c2ccccc2F)ncc1Cl
Output: 2.65

Task: Form field: reported log10 of IC50 of CC(C)S(=O)(=O)c1ccccc1Nc1nc(N/N=C/c2cccs2)ncc1Cl
Output: 2.96

Task: Form field: reported log10 of IC50 of CC(C)S(=O)(=O)c1ccccc1Nc1nc(N/N=C/c2cccc(Br)c2)ncc1Cl
Output: 3.15

Task: Form field: reported log10 of IC50 of CC(C)S(=O)(=O)c1ccccc1Nc1nc(N/N=C/c2ccccc2Cl)ncc1Cl
Output: 3.75

Task: Form field: reported log10 of IC50 of C/C(=N\Nc1ncc(Cl)c(Nc2ccccc2S(=O)(=O)C(C)C)n1)c1ccccc1F
Output: 2.73

Task: Form field: reported log10 of IC50 of Cc1cc(Nc2ncc(Cl)c(Nc3ccccc3S(=O)(=O)C(C)C)n2)c(OC(C)C)cc1C1CCNCC1
Output: 1.43

Task: Form field: reported log10 of IC50 of C/C(=N\Nc1ncc(Cl)c(Nc2ccccc2S(=O)(=O)C(C)C)n1)c1ccc(C#N)cc1
Output: 2.43

Task: Form field: reported log10 of IC50 of CC(C)S(=O)(=O)c1ccccc1Nc1nc(N/N=C/c2ccc([N+](=O)[O-])cc2)ncc1Cl
Output: 3.47

Proceed to the following item.
Task: Form field: reported log10 of IC50 of CC(C)S(=O)(=O)c1ccccc1Nc1nc(N/N=C/c2ccc(Br)cc2)ncc1Cl
Output: 3.16
